Catalogue of melting point readings, one per entry.
OBSERVATION_TYPE: melting point

> print(dat)
                                    molecule             result
 1  COc1ccc(-c2nnn(-c3c(Cl)cc(Cl)cc3I)c2N)cc1 [Compound 22]    72.5 to 73.6 °C
 2  Nc1c(-c2cc(Cl)ccc2O)nnn1-c1ccc(Cl)cc1Cl [Compound 8]  131.3 to 135.6 °C
 3  COc1ccc(-n2nnc(-c3ccc(Cl)cc3F)c2N)cc1 [Compound 27]  147.9 to 149.5 °C
 4  COc1ccc(-c2nnn(-c3ccc(F)cc3Cl)c2N)cc1 [Compound 5]  136.3 to 141.2 °C
 5  Nc1c(-c2ccc(-c3nnco3)cc2)nnn1-c1ccc(C(F)(F)F)cc1F [Compound 10]  184.6 to 186.1 °C
 6  COc1ccc(-n2nnc(-c3ccc(C(F)(F)F)cc3F)c2N)cc1 [Compound 16]  164.6 to 165.5 °C
 7  Nc1c(-c2ccc(C(F)(F)F)cc2F)nnn1-c1ccc(S(N)(=O)=O)cc1 [Compound 13]  183.8 to 185.2 °C
 8  Nc1c(-c2cc(Cl)ccc2O)nnn1-c1ccc(C(F)(F)F)cc1Cl [Compound 9]    74.5 to 77.5 °C
 9  COc1ccc(-n2nnc(-c3ccc(F)cc3F)c2N)cc1 [Compound 24]    152 to 156.5 °C
10  COc1ccc(-n2nnc(-c3ccc(F)cc3Cl)c2N)cc1 [Compound 25]    175 to 176.8 °C
11  COc1ccc(-c2nnn(-c3cc(C)on3)c2N)cc1 [Compound 7]  136.3 to 141.2 °C
12  CC(=O)Nc1ccc(-c2nnn(-c3ccc(C(F)(F)F)cc3F)c2N)cc1 [Compound 11]  114.8 to 116.2 °C
13  Nc1c(-c2ccc(O)cc2)nnn1-c1ccc(C(F)(F)F)cc1Cl [Compound 21]    161 to 162.3 °C
14  Nc1c(-c2ccc(Cl)cc2)nnn1-c1ccc(C(F)(F)F)cc1F [Compound 18]  169.9 to 170.2 °C
15  Nc1c(-c2ccc(O)cc2)nnn1-c1ccc(C(F)(F)F)cc1F [Compound 15]  163.5 to 165.2 °C
16  Nc1ccc(-c2nnn(-c3ccc(C(F)(F)F)cc3F)c2N)cc1 [Compound 12]    163.6 to 165 °C
17  COc1ccc(-n2nnc(-c3ccc(Cl)cc3Cl)c2N)cc1 [Compound 6]  154.6 to 163.9 °C
18  COc1ccc(-c2nnn(-c3ccc(C(F)(F)F)cc3Cl)c2N)cc1 [Compound 3]    130 to 130.7 °C
19  COc1ccc(-n2nnc(-c3ccc(Cl)c(Cl)c3)c2N)cc1 [Compound 26]  189.9 to 191.3 °C

Values from patent US8110588B2
